Test name: NCI Yeast Anticancer Drug Screen. Data for the sgs1 mgt1 strain (AID 161);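 also: 0% = growth of cultures given vehicle only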
Assay conditions: S. cerevisiae sgs1 mgt1 strain, at 50.0 µM, stronger effect = higher value
This is part of a sample that, as a whole, favours compounds with a hit. Of some 79,000 tested, about 15% had one in any assay.
Parameter measured: growth inhibition (%)
Quick reminder: number only, in %, skip the unit.

Some entries whose results are on file:
Molecule: O=C(Nc1ccc(C(=O)O)cc1)OCc1ccccc1
Unit descriptor: %
growth inhibition: 15.5
--
Molecule: Cn1cc(N=P(c2ccccc2)(c2ccccc2)c2ccccc2)c(=O)n(C)c1=O
Unit descriptor: %
growth inhibition: -11.1
--
Molecule: COC(=O)c1cncc(C(=O)OC)c1
Unit descriptor: %
growth inhibition: 2.75
--
Molecule: Cc1ncc(CO)c(/C=N/NC(=O)c2ccncc2)c1O
Unit descriptor: %
growth inhibition: 11.7
--
Molecule: CCN(CC)Cc1cc(Nc2ccnc3ccc4nn(C)nc4c23)ccc1O
Unit descriptor: %
growth inhibition: -28.1

Identify the reported growth inhibition for the following entry. CC(OC1CC(=O)CC2C(=O)C=CC(=O)C12)c1ccccc1 (stereo not drawn)
26.3

Identify the reported growth inhibition for the following entry. Nc1nc[n+](Cc2ccccc2)c2ncn(Cc3ccccc3)c12
-11.2

Identify the reported growth inhibition for the following entry. CCCCn1cnnc1NS(=O)(=O)c1cc(C)c(Cl)cc1SCC(=O)O
6.15

Identify the reported growth inhibition for the following entry. CCCSc1nnc(SCCC)c2[nH]cnc12
0.95

Identify the reported growth inhibition for the following entry. CC(C)(C)C(=O)Nc1ccc(NS(=O)(=O)c2ccccc2)cc1
2.85

Identify the reported growth inhibition for the following entry. CN(C)c1ccccc1C(=O)NNC(=S)Nc1ccccc1
42.7

Identify the reported growth inhibition for the following entry. O=P(OC1=NCCN1Cc1ccccc1)(OC1=NCCN1Cc1ccccc1)N1CC1
21.7

Identify the reported growth inhibition for the following entry. CCc1c(C)[nH]c(C2=NCCC2)c1C
-17.8

Identify the reported growth inhibition for the following entry. C=C1C(C(=O)O)C1C(=O)O (stereo not drawn)
20.4

Identify the reported growth inhibition for the following entry. CCN(CC)Cc1ccccc1COC(=O)/C=C/c1ccccc1
11.6

Identify the reported growth inhibition for the following entry. CC(=O)OC(CCN(C)C)c1ccccc1 (stereo not drawn)
0.6

Identify the reported growth inhibition for the following entry. C1=C(c2ccccc2)NC2=N[C@H]3CCCC[C@@H]3N2C1c1ccccc1 (stereo partly drawn)
22.8

Identify the reported growth inhibition for the following entry. C[C@H]1CC[C@@]2(OC1)O[C@H]1C[C@H]3[C@@H]4CC[C@@H]5C[C@@H](OC6OC(CO)C(O)C(O)C6OC6OC(CO)C(O)C(O)C6O)CC[C@]5(C)[C@H]4CC[C@]3(C)[C@H]1[C@@H]2C (stereo partly drawn)
37.8

Identify the reported growth inhibition for the following entry. CS1(=O)=NC(=O)C(N2C(=O)c3ccccc3C2=O)CC1 (stereo not drawn)
-0.95

Identify the reported growth inhibition for the following entry. CC1CNC(C)(C)O1 (stereo not drawn)
18.9

Identify the reported growth inhibition for the following entry. COC(CNc1nc2c(s1)c1c(O)c3c(O)c(C)c4c(c32)C(=O)C(C)(O/C=C\C(OC)C(C)C(OC(C)=O)C(C)C(O)C(C)C(O)C(C)/C=C/C=C(/C)C(=O)N1)O4)OC (stereo not drawn)
-13

Identify the reported growth inhibition for the following entry. NNC(=O)c1ccc(Cl)c(Cl)c1
-0.9

Identify the reported growth inhibition for the following entry. C=C(C)COc1ccc(/C=C/C(=O)OCC)cc1
4.5
